biological target: sh155 (Triticum aestivum); experiment: Kinetic inhibition analysis of dimer sh155 by butachlor; assay type: biochemical; settings: towards CDNB; binding to enzyme-substrate complex
READOUT TYPE: pKi
Entry type: numeric. Quantity: pKi, the -log10 of concentration in molar units.

Task: What value of pKi has been recorded for this entry: `CCCCOCN(C(=O)CCl)c1c(CC)cccc1CC`
Result: 4.65

====

target: immobilized FGGsh155:CB[8] (Triticum aestivum, UniProt Z9G7Y6U750)
READOUT TYPE: IC50 (nM)
Kindly answer with a numeric value in nM, unit omitted.

Task: For the record `CCCCOCN(C(=O)CCl)c1c(CC)cccc1CC` , what value of IC50 is listed for immobilized FGGsh155:CB[8] (Triticum aestivum, UniProt Z9G7Y6U750)?
Result: 560

====

biological target: FGGsh155:CB[8] (Triticum aestivum); experiment: Inhibition of free FGGsh155:CB[8] by butachlor (IC50, kinetic inhibition analysis); type: biochemical; details: towards CDNB (variable CDNB, constant GSH); binding to free enzyme
READOUT TYPE: Ki

Task: What value of Ki has been recorded for this entry: `CCCCOCN(C(=O)CCl)c1c(CC)cccc1CC`
Result: 4.42 µM

====

target: sh155 (Triticum aestivum); assay: Kinetic inhibition analysis of dimer sh155 by butachlor; type: biochemical; conditions: towards GSH (variable GSH, constant CDNB)
READOUT TYPE: pKi
Entry type: numeric. Quantity: pKi, the -log10 of concentration in molar units.

Task: For the record `CCCCOCN(C(=O)CCl)c1c(CC)cccc1CC` , what value of pKi is listed for sh155 (Triticum aestivum)?
Result: 4.88

====

biological target: FGGsh155:CB[8] (Triticum aestivum, UniProt Z9G7Y6U750); assay: Inhibition of free FGGsh155:CB[8] by butachlor (IC50, kinetic inhibition analysis); assay type: biochemical; conditions: towards GSH (variable GSH, constant CDNB)
READOUT TYPE: pKi
Entry type: numeric. Quantity: pKi, the -log10 of concentration in molar units.

Task: What value of pKi has been recorded for this entry: `CCCCOCN(C(=O)CCl)c1c(CC)cccc1CC`
Result: 4.88

====

Biological target: UniProt Z9G7Y6U750
Assay: Inhibition of free FGGsh155:CB[8] by butachlor (IC50, kinetic inhibition analysis)
Format: biochemical
Conditions: towards CDNB; binding to enzyme-substrate complex
Description: The half maximal inhibitory concentration (IC50), namely the inhibitor concentration that leads to 50% inhibition of the enzyme activity of FGGsh155:CB[8], was determined for constant substrate concentrations and varying butachlor concentrations. The utilised substrate concentrations were equal to the kinetic constant value of S0.5 for CDNB and 2.5 times the CDNB concentration for GSH. […]
READOUT TYPE: Ki (µM)
Kindly answer with a numeric value in µM, unit omitted.

Task: For the record CCCCOCN(C(=O)CCl)c1c(CC)cccc1CC [butachlor] , what value of Ki is listed for UniProt Z9G7Y6U750?
Result: 21.1

====

READOUT TYPE: IC50 (µM)
Kindly answer with a numeric value in µM, unit omitted.

Task: For the record CCCCOCN(C(=O)CCl)c1c(CC)cccc1CC [butachlor] , what value of IC50 is listed for FGGsh155:CB[8] (Triticum aestivum, UniProt Z9G7Y6U750)?
Result: 5.14
